MEASURED TARGET: NanoLuc-RIPK2 (Homo sapiens, UniProt O43353)
Construct: host or cells: hNOD2-HEKBlue cells
Sequence (O43353 whole entry): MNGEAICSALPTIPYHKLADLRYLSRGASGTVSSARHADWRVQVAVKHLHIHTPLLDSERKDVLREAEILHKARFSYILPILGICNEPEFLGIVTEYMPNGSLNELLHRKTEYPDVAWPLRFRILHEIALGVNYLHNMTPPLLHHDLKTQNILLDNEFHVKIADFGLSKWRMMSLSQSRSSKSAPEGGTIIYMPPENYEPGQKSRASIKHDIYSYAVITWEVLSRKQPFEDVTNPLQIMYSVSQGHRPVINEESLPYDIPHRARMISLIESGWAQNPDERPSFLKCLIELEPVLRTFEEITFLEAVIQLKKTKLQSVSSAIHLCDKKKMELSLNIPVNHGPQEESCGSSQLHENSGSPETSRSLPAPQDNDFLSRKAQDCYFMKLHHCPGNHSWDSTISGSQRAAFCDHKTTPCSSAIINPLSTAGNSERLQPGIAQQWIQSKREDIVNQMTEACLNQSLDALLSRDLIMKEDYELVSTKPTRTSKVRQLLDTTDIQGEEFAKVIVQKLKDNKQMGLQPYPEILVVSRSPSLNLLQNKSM
EXPERIMENT DESCRIPTION: nanoBRET cellular RIPK2 residence time assay in HEKBlue cells
Format: binding
EXPERIMENTAL SETUP: t1/2 for probe to engage RIPK2 after washout of inhibitor
EXPERIMENTAL READOUT: residence time

// below: answered compounds
COc1cc(-c2cc(-c3ccc(N4CCNCC4)cc3)cnc2N)cc(F)c1OC [CSLP55]
6.8 min
CCCS(=O)(=O)Nc1cc(-c2cc(-c3ccc(N4CCNCC4)cc3)cnc2N)cc(F)c1OC [CSLP37]
27.1 min
CCCS(=O)(=O)Nc1cc(-c2cc(-c3ccc(N4CCNCC4)cc3)cnc2N)cc(OC)c1OC [CSLP43]
107 min

API: value(readout= residence time, system= NanoLuc-RIPK2 (Homo sapiens, UniProt O43353), query= Cc1ccc(-c2nn(C(C)(C)CNC(=O)c3ccncc3)c3ncnc(N)c23)cc1 [WEHI‐345, reference compound] )
7.5 min

API: value(readout= residence time, system= NanoLuc-RIPK2 (Homo sapiens, UniProt O43353), query= CCCS(=O)(=O)Nc1cc(-c2cc(-c3ccc(N4CCNCC4)cc3)cnc2N)ccc1OC [CSLP18] )
66.6 min

API: value(readout= residence time, system= NanoLuc-RIPK2 (Homo sapiens, UniProt O43353), query= CCCS(=O)(=O)Nc1cc(-c2cc(-c3ccc(N4CCNCC4)cc3)cnc2N)ccc1O [CSLP48] )
127 min

API: value(readout= residence time, system= NanoLuc-RIPK2 (Homo sapiens, UniProt O43353), query= CCCS(=O)(=O)Nc1cc(F)cc(-c2cc(-c3ccc(N4CCNCC4)cc3)cnc2N)c1 [CSLP38] )
106 min
